observationType: melting point

Recorded melting point, per entry:
* Cl.ON=c1cc(-c2cc3cccn3cn2)oc2ccc(OCCCN3CCOCC3)cc12 [Example 101] | > 220 °C (dec.)
* ON=c1cc(-c2cc3ccccc3cn2)oc2cc(C#Cc3ccccn3)ccc12 [Example 24] | 248 to 251 °C

stdin: Kindly indicate its recorded melting point. Item: ON=c1cc(-c2cn3cccc3cn2)oc2ccccc12 [Example 91]
stdout: > 276 °C

###

Listed below: melting point values for each entry.

Solved entries:
• Cl.ON=c1cc(-c2cn3cccc3cn2)oc2ccc(OCCN3CCC(F)(F)CC3)cc12 = 225 to 230 °C
• COc1cccc2oc(-c3cc4cccn4cn3)cc(=NO)c12 = 240 to 243 °C
• CCc1ccc2oc(-c3cc4ccccc4cn3)cc(=NO)c2c1 = 210 to 212 °C
• Cl.ON=c1cc(-c2cc3sccc3cn2)oc2ccc(OCCN3CCC(F)(F)CC3)cc12 = 225 to 230 °C
• ON=c1cc(-c2cc3ccc(Cl)cc3cn2)oc2ccccc12 = 260 to 261 °C

stdin: // Input: "CN(C)C1CCN(CCOc2ccc3oc(-c4cc5cccn5cn4)cc(=NO)c3c2)CC1.Cl.Cl" . Output its melting point only.
stdout: > 255 °C (dec.)

stdin: Name the recorded melting point of the compound listed here: "Cl.ON=c1cc(-c2cc3cccn3cn2)oc2ccc(OCCN3CCCOCC3)cc12"
stdout: 240 °C (dec.)

stdin: Give melting point for the following compound: COCCCc1ccc2oc(-c3cc4cccn4cn3)cc(=NO)c2c1 (mixture of isomers)
stdout: 172 to 173 °C

stdin: Assign melting point to the following record: "Cl.ON=c1cc(-c2cc3cccn3cn2)oc2ccc(OCCCc3ccncc3)cc12"
stdout: 210 to 215 °C

stdin: Note down melting point recorded for "Cc1cc2c(=NO)cc(-c3cc4ccccc4cn3)oc2cc1Br"
stdout: 267 to 270 °C

stdin: Tell me melting point reported for "Cl.ON=c1cc(-c2cn3cccc3cn2)oc2ccc(OCCn3ccnc3)cc12"
stdout: 238 to 240 °C

###

melting point by entry:

Illustrative cases are given below, each with its answer.
* COCCOc1ccc2oc(-c3cc4ccccc4cn3)cc(=NO)c2c1 (mixture of isomers) | 198 to 204 °C
* ON=c1cc(-c2cc3cccn3cn2)oc2ccc(OCCc3ccc(Cl)cc3)cc12 | 247 to 249 °C
* ON=c1cc(-c2cc3ccccc3cn2)oc2cc(C#Cc3ccccc3Cl)ccc12 | 292 to 297 °C
* C=Cc1ccc2oc(-c3cc4ccccc4cn3)cc(=NO)c2c1 | 198 to 200 °C
* CN(C)CCCOc1ccc2oc(-c3cc4cccn4cn3)cc(=NO)c2c1.Cl | > 270 °C (dec.)

For the next question, use this molecule.
stdin: Specify melting point for ON=c1cc(-c2cc3ccsc3cn2)oc2ccccc12 (mixture of isomers) and stop.
stdout: 243 to 245 °C

###

Listed compounds paired with reported EC50
- systemTested: human mGluR4 transiently over-expressed in HEK-293 cells (Homo sapiens, UniProt Q14833)
- Construct: expressed in transfected cells; host or cells: HEK-293 cells, transient co-transfection by electroporation
- Sequence (Q14833 33-912): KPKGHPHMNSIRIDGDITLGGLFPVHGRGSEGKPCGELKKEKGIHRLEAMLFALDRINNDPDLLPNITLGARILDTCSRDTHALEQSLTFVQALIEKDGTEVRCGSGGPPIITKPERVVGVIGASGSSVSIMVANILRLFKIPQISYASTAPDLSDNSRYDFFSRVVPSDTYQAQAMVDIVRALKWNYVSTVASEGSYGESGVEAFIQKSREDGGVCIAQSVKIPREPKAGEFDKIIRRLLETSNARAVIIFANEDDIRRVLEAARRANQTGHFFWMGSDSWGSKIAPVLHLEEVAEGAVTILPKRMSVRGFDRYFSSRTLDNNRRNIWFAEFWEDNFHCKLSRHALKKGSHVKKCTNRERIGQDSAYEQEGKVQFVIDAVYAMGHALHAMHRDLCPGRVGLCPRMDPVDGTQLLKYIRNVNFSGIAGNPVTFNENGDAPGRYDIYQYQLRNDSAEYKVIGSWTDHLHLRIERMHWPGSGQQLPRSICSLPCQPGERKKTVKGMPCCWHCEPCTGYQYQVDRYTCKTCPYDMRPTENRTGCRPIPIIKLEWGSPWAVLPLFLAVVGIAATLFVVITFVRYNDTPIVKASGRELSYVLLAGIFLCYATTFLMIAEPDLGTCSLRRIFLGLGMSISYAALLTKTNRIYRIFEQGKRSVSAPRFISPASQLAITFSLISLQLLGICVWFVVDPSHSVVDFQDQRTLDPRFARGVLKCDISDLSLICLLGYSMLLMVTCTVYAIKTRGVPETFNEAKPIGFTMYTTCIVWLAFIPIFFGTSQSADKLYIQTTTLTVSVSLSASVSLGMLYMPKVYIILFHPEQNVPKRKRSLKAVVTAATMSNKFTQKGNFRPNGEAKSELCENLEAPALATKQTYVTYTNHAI
- methodNotes: Human mGluR4 positive allosteric modulator evaluation using Ca++ functional assay
- Type: cell-based
- measurementConditions: HEK-293 cells co-transfected with hmGluR4 and chimeric G protein; EC10 glutamate; intracellular calcium (Fluo4AM); read-out: mean EC50 of agonist/positive allosteric modulator activity on mGluR4

• CCc1ccc2oc(-c3cc4ccccc4cn3)cc(=NO)c2c1 [Example 37] = < 1 µM
• CC1CN(CCOc2ccc3oc(-c4cc5sccc5cn4)cc(=NO)c3c2)CC(C)O1.Cl (centres unmarked) [Example 132, hydrochloride] = < 1 µM
• Cl.ON=c1cc(-c2cc3cccn3cn2)oc2ccc(CNCc3ccc(F)cc3)cc12 [Example 144, hydrochloride] = < 5 µM

stdin: Would you please give the reported EC50 of Cl.ON=c1cc(-c2cn3cccc3cn2)oc2ccc(OCCn3ccnc3)cc12 [Example 125, hydrochloride] with human mGluR4 transiently over-expressed in HEK-293 cells (Homo sapiens, UniProt Q14833)?
stdout: < 1 µM

stdin: Provide the reported EC50 (system: human mGluR4 transiently over-expressed in HEK-293 cells (Homo sapiens, UniProt Q14833)) for ON=c1cc(-c2cc3cccn3cn2)oc2ccc(OCCCOc3ccc(F)cc3)cc12 [Example 161]
stdout: < 1 µM
